Data origin, for the record: patent US20250051359A1

test system: MOLP-8 human multiple myeloma cell line; test: Caspase-Glo 3/7 apoptosis induction assay in MOLP-8 cells; type: cell-based; settings: caspase-3/7 activity, 2 hours at 37° C., averaged over all runs on all batches, read-out: MOLP8 AC50
REPORTED ENDPOINT: AC50 (nM)

MOLECULE	TARGET DESC	ENDPOINT VALUE
C[C@@H]1[C@@H](C)C/C=C/[C@H](C(=O)N(C)CCC2CCOCC2)N2CCC[C@H]2CN2C[C@@]3(CCCc4cc(Cl)ccc43)COc3ccc(cc32)C(=O)NS1(=O)=O [Compound 2]	MOLP-8 human multiple myeloma cell line	130
C[C@@H]1[C@@H](C)C/C=C/[C@H](C(=O)N(C)C)N2CCC[C@H]2CN2C[C@@]3(CCCc4cc(Cl)ccc43)COc3ccc(cc32)C(=O)NS1(=O)=O [Compound 4]	MOLP-8 human multiple myeloma cell line	180
C[C@@H]1[C@@H](C)C/C=C/[C@H](C(=O)N(C)CC2CCOCC2)N2CCC[C@H]2CN2C[C@@]3(CCCc4cc(Cl)ccc43)COc3ccc(cc32)C(=O)NS1(=O)=O [Compound 3]	MOLP-8 human multiple myeloma cell line	81
